# target: USP28 (His-tagged USP28-FL-mammalian) (Homo sapiens, UniProt Q96RU2)
# Construct: Expression of USP28 (1-1077)-TEV-6*His (pTT5 vector); made in house; host or cells: Expi293f cells (pTT5 vector)
# protocol_summary: Ubiquitin-Rhodamine 110 Assay for USP28 Activity, Example A-1(a)
# Type: biochemical
# recorded_conditions: Ubiquitin-Rhodamine 110 assay, Example A-1(a); read-out: USP28 A-1(a) IC50 range
pIC50: −log10 of the molar value.
recorded_metric: pIC50

Examples with their reported pIC50 follow.
{"columns": ["molecule", "pIC50"],
 "data": [
  ["Cc1ccc2c(N)c(C(=O)N[C@H]3COc4cc(N5C[C@@H](N)[C@@H](C(F)F)C5)ccc4C3)sc2n1", "7.30 to 9.00"],
  ["COC[C@@H]1CN(c2nc3c(cc2F)C[C@H](NC(=O)c2sc4nc(C)ccc4c2N)CC3)C[C@@H]1N (single isomer, unassigned)", "6.70 to 7.30"],
  ["COc1ccc2c(N)c(C(=O)N[C@H]3COc4cc(N5CCNCC5)cc(F)c4C3)sc2n1", "7.30 to 9.00"],
  ["Cc1ccc2c(N)c(C(=O)N[C@H]3COc4c(F)c(N5CCNCC5)cc(F)c4C3)oc2n1", "5.70 to 6.70"],
  ["Cc1ccc2c(N)c(C(=O)N[C@H]3CCc4nc(N5C[C@H](OC(C)C)[C@@H](N)C5)ccc4C3)sc2n1", "6.70 to 7.30"],
  ["CO[C@@]1(C)CN(c2ccc3c(c2)OC[C@H](NC(=O)c2sc4nc(C)ccc4c2N)C3)C[C@@H]1N", "7.30 to 9.00"]
]}

Below is a list of molecules. For each, state its recorded pIC50.
1. Cc1ccc2c(N)c(C(=O)N[C@H]3Cc4ccc(N5CCNCC5)nc4C4(CC4)C3)sc2n1 (single isomer, unassigned)
2. CCn1ccc2cc(C(=O)N[C@@H]3CCc4cc(N5C[C@H](OC)[C@@H](N)C5)cc(F)c4C3)nnc21
3. Cc1ccc2c(N)c(C(=O)N[C@H]3CCc4nc(N5C[C@H](OC(C)C)[C@@H](N)C5)ncc4C3)sc2n1
4. CC(=O)N[C@@H]1CN(c2ccc3c(n2)CC[C@H](NC(=O)c2sc4nc(C)ccc4c2N)C3)C[C@H]1C(F)F
5. Cc1cc(C)c2c(N)c(C(=O)N[C@H]3COc4cc(N5CC6CC(C5)N6)cc(F)c4C3)sc2n1
6. Cc1ccc2c(N)c(C(=O)N[C@H]3COc4cc(N5C[C@@H](N)[C@@H](F)C5)ccc4C3)sc2n1 (single isomer, unassigned)
7. Cc1ccc2c(N)c(C(=O)N[C@H]3COc4cc(N5C6CNCC5COC6)ccc4C3)sc2n1
8. Cc1ccc2c(N)c(C(=O)N[C@H]3CCc4nc(N5C[C@H](CF)[C@@H](N)C5)ccc4C3)sc2n1

## Result
["7.30 to 9.00", "< 5.70", "< 5.70", "6.70 to 7.30", "7.30 to 9.00", "7.30 to 9.00", "7.30 to 9.00", "6.70 to 7.30"]

Below is a list of molecules. For each, state its recorded pIC50.
1. CO[C@H]1CN(c2cc(F)c3c(c2C#N)OC[C@H](NC(=O)c2sc4nc(C)ccc4c2N)C3)C[C@@H]1N
2. Cc1ccc2c(N)c(C(=O)N[C@@H]3CCc4cc(N5CC6CNCC(C5)O6)ccc4C3)sc2n1
3. Cc1ccc2c(N)c(C(=O)N[C@H]3COc4cc(N5C[C@H](N)C(C)(C)C5)ccc4C3)sc2n1

## Result
6.70 to 7.30
6.70 to 7.30
7.30 to 9.00

Below is a list of molecules. For each, state its recorded pIC50.
1. Cc1ccc2c(N)c(C(=O)N[C@H]3COc4c(cc(F)c(N5CCNCC5)c4F)C3)sc2n1 (single isomer, unassigned)
2. Cc1ccc2c(N)c(C(=O)N[C@H]3COc4cc(N5C[C@H](OC(F)(F)F)[C@@H](N)C5)ccc4C3)sc2n1 (single isomer, unassigned)
3. CO[C@H]1CN(c2cc(F)c3c(c2)CC[C@H](NC(=O)c2sc4nc(C)ccc4c2N)C3)C[C@@H]1N
4. CO[C@H]1CN(c2cc3c(c(F)c2C#N)C[C@@H](NC(=O)c2sc4nc(C)ccc4c2N)CO3)C[C@@H]1N

## Result
1: 7.30 to 9.00; 2: 6.70 to 7.30; 3: < 5.70; 4: 7.30 to 9.00

Below is a list of molecules. For each, state its recorded pIC50.
1. Cc1ccc2c(N)c(C(=O)N[C@H]3COc4cc(N5CC6CNC[C@@](C)(C5)O6)cc(F)c4C3)sc2n1
2. O=C(N[C@H]1COc2cc(N3CCNCC3)ccc2C1)c1cnc2c(ccn2Cc2ccccc2)c1
3. Cc1ccc2c(N)c(C(=O)N[C@H]3COc4c(ccc(N5CC6CNCC(C5)O6)c4F)C3)sc2n1
4. CO[C@H]1CN(c2ccc3c(c2)CC[C@H](NC(=O)c2sc4nc(C)sc4c2N)C3)C[C@@H]1N
5. CO[C@H]1[C@H](N)CN(c2ccc3c(c2)OC[C@H](NC(=O)c2sc4nc(C)ccc4c2N)C3)[C@H]1C
6. Cc1ccc2c(N)c(C(=O)N[C@H]3COc4cc(N5C[C@H]6CNC[C@@H]6C5)ccc4C3)sc2n1

## Result
1. 6.70 to 7.30
2. 7.30 to 9.00
3. 7.30 to 9.00
4. 6.70 to 7.30
5. 7.30 to 9.00
6. 5.70 to 6.70

====

# target: USP28 (USP28-5(1-1077)-TEV-6*His; LifeSensors) (Homo sapiens, UniProt Q96RU2)
# Construct: construct USP28 (USP28-5(1-1077)-TEV-6*His; LifeSensors); TEV cleavage site (C); 6xHis (C); purchased LifeSensors
# Sequence (Q96RU2 1-1077): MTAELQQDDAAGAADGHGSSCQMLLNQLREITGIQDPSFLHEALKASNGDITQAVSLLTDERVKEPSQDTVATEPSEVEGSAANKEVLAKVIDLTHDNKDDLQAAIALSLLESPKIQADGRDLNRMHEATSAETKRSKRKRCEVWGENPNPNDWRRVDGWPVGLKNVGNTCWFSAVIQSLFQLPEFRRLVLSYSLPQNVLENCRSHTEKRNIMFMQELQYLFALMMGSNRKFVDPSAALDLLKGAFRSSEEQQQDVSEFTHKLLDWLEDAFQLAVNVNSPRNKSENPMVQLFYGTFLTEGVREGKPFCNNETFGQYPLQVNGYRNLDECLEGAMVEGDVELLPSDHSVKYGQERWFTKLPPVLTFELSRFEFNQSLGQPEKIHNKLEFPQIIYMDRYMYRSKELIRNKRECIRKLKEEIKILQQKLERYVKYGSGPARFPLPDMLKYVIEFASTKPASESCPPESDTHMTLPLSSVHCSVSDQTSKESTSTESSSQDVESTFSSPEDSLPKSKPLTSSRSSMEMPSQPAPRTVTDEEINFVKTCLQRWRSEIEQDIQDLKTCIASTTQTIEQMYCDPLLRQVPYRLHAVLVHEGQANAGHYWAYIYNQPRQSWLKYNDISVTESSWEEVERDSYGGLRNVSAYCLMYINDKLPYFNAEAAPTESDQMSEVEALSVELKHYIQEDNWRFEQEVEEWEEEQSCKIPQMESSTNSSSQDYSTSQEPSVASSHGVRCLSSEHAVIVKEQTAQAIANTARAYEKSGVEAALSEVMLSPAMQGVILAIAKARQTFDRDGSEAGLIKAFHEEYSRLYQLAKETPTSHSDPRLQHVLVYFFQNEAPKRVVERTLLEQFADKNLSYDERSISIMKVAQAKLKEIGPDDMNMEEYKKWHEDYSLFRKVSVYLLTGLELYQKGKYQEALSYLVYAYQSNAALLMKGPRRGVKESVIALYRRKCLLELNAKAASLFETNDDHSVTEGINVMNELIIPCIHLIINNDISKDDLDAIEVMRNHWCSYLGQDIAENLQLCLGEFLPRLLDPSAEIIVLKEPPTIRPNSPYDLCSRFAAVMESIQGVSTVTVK
# protocol_summary: Ubiquitin-Rhodamine 110 Assay for USP28 Activity, Example A-1(b)
# Format: biochemical
# recorded_conditions: Ubiquitin-Rhodamine 110 assay, Example A-1(b)
recorded_metric: USP28 A-1(b) IC50 range

Examples with their reported USP28 A-1(b) IC50 range follow.
{"columns": ["compound", "recorded_value"],
 "data": [
  ["Cc1cnc2c(N)c(C(=O)N[C@H]3COc4cc(N5CC6CNCC(C5)O6)cc(F)c4C3)sc2n1 [Example 10-12]", "++++ (0.001-0.05 μM)"],
  ["O=C(N[C@H]1COc2cc(N3CCNCC3)ccc2C1)c1ccc(NCc2ccc3c(c2)OCCO3)nc1 [Example 471]", "+ (>2 μM)"],
  ["O=C(N[C@H]1COc2cc(N3CCNCC3)ccc2C1)c1cnn2cc(Cl)ccc12 [Example 462]", "+ (>2 μM)"],
  ["Cc1ccc2c(N)c(C(=O)N[C@H]3COc4cc(N5CC[C@@]6(CCCNC6)C5)ccc4C3)sc2n1 [Example 3-14]", "+++ (0.05-0.2 μM)"],
  ["Cc1ccc2c(N)c(C(=O)N[C@@H]3CCc4cc(N5CC6CNCC(C5)O6)ccc4C3)sc2n1 [Example 451]", "++ (0.2-2 μM)"],
  ["Cc1ccc2c(N)c(C(=O)N[C@H]3COc4cc(N5CCS(=O)(=O)CC5)ccc4C3)sc2n1 [Example 5-2]", "+++ (0.05-0.2 μM)"]
]}

Below is a list of compounds. For each, state its recorded USP28 A-1(b) IC50 range.
1. Cc1ccc2c(N)c(C(=O)N[C@H]3COc4cc(N5CCNCC5)cc(F)c4C3)oc2n1 [Example 169]
2. Cc1ccc2c(N)c(C(=O)N[C@H]3CCc4cc(N5CC6CNCC(C5)O6)ccc4C3)sc2n1 (single isomer, unassigned) [Example 449]
3. Cc1cnc2c(N)c(C(=O)N[C@H]3CCc4cc(N5CC6CNCC(C5)O6)ccc4C3)sc2n1 [Example 448]
4. O=C(N[C@@H]1COc2cc(N3CCNCC3)ccc2C1)c1cnc2c(ccn2C(F)F)c1 [Example 39]
5. Cc1ccc2c(N)c(C(=O)N[C@@H]3CCc4cc(N5CCN[C@H](CO)C5)ccc4C3)sc2n1 (single isomer, unassigned) [Example 7-10]
6. O=C(N[C@H]1COc2cc(N3CCNCC3)ccc2C1)c1ccc(NCc2cccc(C(F)(F)F)c2)nc1 [Example 469]
7. Cc1cnc2c(N)c(C(=O)N[C@H]3COc4c(C#N)c(N5CCNCC5)cc(F)c4C3)sc2n1 [Example 60]

## Result
+ (>2 μM)
++ (0.2-2 μM)
++ (0.2-2 μM)
+ (>2 μM)
++ (0.2-2 μM)
++ (0.2-2 μM)
++ (0.2-2 μM)

Below is a list of compounds. For each, state its recorded USP28 A-1(b) IC50 range.
1. O=C(N[C@H]1COc2cc(N3CCNCC3)ccc2C1)c1cnn2ccccc12 [Example 460]
2. Cc1ccc2c(N)c(C(=O)N[C@H]3COc4cc(O[C@H]5COC6(CNC6)C5)ccc4C3)sc2n1 (single isomer, unassigned) [Example 9-2]
3. Cc1cnc2c(N)c(C(=O)N[C@@H]3CCc4cc(N5CCNCC5)ccc4C3)sc2n1 (single isomer, unassigned) [Example 11-20]
4. Nc1c(C(=O)N[C@H]2COc3cc(N4CCNCC4)ccc3C2)sc2nc(C3CC3)sc12 [Example 45]
5. Cc1cnc2c(N)c(C(=O)N[C@@H]3CCc4cc(N5CCNC[C@H](O)C5)ccc4C3)sc2n1 (single isomer, unassigned) [Example 7-7]
6. Cc1ccc2c(N)c(C(=O)N[C@H]3CCc4nc(N5C[C@@H](N)[C@H](C(F)(F)F)C5)ccc4C3)sc2n1 [Example 364]
7. O=C(N[C@H]1COc2cc(N3CCNCC3)ccc2C1)c1ccc(NCc2ccccn2)nc1 [Example 470]
8. Cc1cnc2c(N)c(C(=O)N[C@H]3CCc4cc(N5CC6CCC(C5)N6)ccc4C3)sc2n1 (single isomer, unassigned) [Example 11-7]

## Result
1. + (>2 μM)
2. +++ (0.05-0.2 μM)
3. + (>2 μM)
4. ++ (0.2-2 μM)
5. + (>2 μM)
6. + (>2 μM)
7. + (>2 μM)
8. ++ (0.2-2 μM)

Below is a list of compounds. For each, state its recorded USP28 A-1(b) IC50 range.
1. CCc1cnc2sc(C(=O)N[C@H]3COc4cc(N5CCNCC5)ccc4C3)c(N)c2n1 [Example 36]
2. O=C(N[C@H]1COc2cc(N3CCNCC3)ccc2C1)c1ccc(NCc2ccc3c(c2)CCO3)nc1 [Example 472]
3. Cc1ccc2c(N)c(C(=O)N[C@@H]3CCc4cc(N5CC6CCC(C5)N6)ccc4C3)sc2n1 [Example 11-2]
4. Cc1ccc2c(N)c(C(=O)N[C@H]3COc4cc(N5CCN[C@@H](C(F)(F)F)C5)ccc4C3)sc2n1 [Example 3-11]

## Result
1. ++ (0.2-2 μM)
2. ++ (0.2-2 μM)
3. ++ (0.2-2 μM)
4. ++ (0.2-2 μM)

Below is a list of compounds. For each, state its recorded USP28 A-1(b) IC50 range.
1. CC(=O)N1CCCc2cc(C(=O)N[C@H]3COc4cc(N5CCNCC5)ccc4C3)ccc21 [Example 459]
2. Cc1ccc2c(N)c(C(=O)N[C@H]3COc4cc(N5CC(O)(C(F)(F)F)C5)ccc4C3)sc2n1 [Example 5-3]
3. Cc1ccc2c(N)c(C(=O)N[C@H]3COc4c(F)c(N5CCNCC5)cc(F)c4C3)sc2n1 [Example 55]
4. Cc1ccc2c(N)c(C(=O)N[C@H]3COc4cc(N5CCNCC5)c(F)c(F)c4C3)sc2n1 [Example 61]

## Result
+ (>2 μM)
+++ (0.05-0.2 μM)
++++ (0.001-0.05 μM)
+++ (0.05-0.2 μM)

Reference source for all entries: patent US11524966B1
